Data provenance is patent US9249125B2.

tested on: RSV A2; experiment: RSV induced F-protein expression in primary bronchial epithelial cells; type: cell-based, respiratory syncytical virus; details: HBECs; screened at concentrations up to 0.04 μg/mL
Could you please mark Satisfied for values of RSV induced F-protein in HBECs % Inhibition Observed below 60% and Not satisfied for values at or above it?

Dear reviewer, please state whether Cc1ccc(-n2nc(C(C)(C)C)cc2NC(=O)Nc2ccc(Oc3ccnc(Nc4cccc5cc[nH]c45)n3)c3ccccc23)cc1 has RSV induced F-protein in HBECs % Inhibition Observed strictly beneath 60%.
Not satisfied

Identify whether the molecule Cc1ccc(-n2nc(C(C)(C)C)cc2NC(=O)Nc2ccc(Oc3ccnc(Nc4ccc5c(ccn5C)c4)n3)c3ccccc23)cc1 records RSV induced F-protein in HBECs % Inhibition Observed below 60%.
Satisfied

# check: RSV induced F-protein in HBECs % Inhibition Observed < 60% for Cc1ccc(-n2nc(C(C)(C)C)cc2NC(=O)Nc2ccc(Oc3ccnc(Nc4ccc5c(c4)ncn5C)n3)c3ccccc23)cc1
Not satisfied

Determine if Cc1ccc(-n2nc(C(C)(C)C)cc2NC(=O)Nc2ccc(Oc3ccnc(Nc4ccc5[nH]cnc5c4)n3)c3ccccc23)cc1 shows RSV induced F-protein in HBECs % Inhibition Observed strictly lower than 60%.
Satisfied

Lab note: RSV induced F-protein in HBECs % Inhibition Observed threshold 60%. Does this molecule come in strictly under it? Cc1ccc(-n2nc(C(C)(C)C)cc2NC(=O)Nc2ccc(Oc3ccnc(Nc4ccc5scnc5c4)n3)c3ccccc23)cc1
Not satisfied

Hi there! Is RSV induced F-protein in HBECs % Inhibition Observed for Cc1ccc(-n2nc(C(C)(C)C)cc2NC(=O)Nc2ccc(Oc3ccnc(Nc4ccc5cn[nH]c5c4)n3)c3ccccc23)cc1 below 60%, do you know?
Satisfied

Just wondering, is RSV induced F-protein in HBECs % Inhibition Observed of Cc1ccc(-n2nc(C(C)(C)C)cc2NC(=O)Nc2ccc(Oc3ccnc(Nc4ccc5ncsc5c4)n3)c3ccccc23)cc1 below 60%?
Not satisfied

Hello, I'm reviewing records and need to know if RSV induced F-protein in HBECs % Inhibition Observed of Cc1ccc(-n2nc(C(C)(C)C)cc2NC(=O)Nc2ccc(Oc3ccnc(Nc4ccc5ncn(C)c5c4)n3)c3ccccc23)cc1 is below 60%. Could you check?
Not satisfied

---

system: Poly I:C-induced ICAM-1 expression in BEAS2B cells; experiment: Poly I:C-induced ICAM-1 expression in BEAS2B cells; type: cell-based; details: Homo sapiens, BEAS-2B, read-out: Poly IC induced ICAM1 in BEAS2B IC50
Mark y only for IC50 values smaller than 4 nM; exact matches and larger values are n.

Please indicate whether the reported IC50 of Cc1cc(Nc2nccc(Oc3ccc(NC(=O)Nc4cc(C(C)(C)C)nn4-c4ccc(OCCN5CCOCC5)cc4)c4ccccc34)n2)cc2cn[nH]c12 is strictly below 4 nM.
y

Bench note: check whether COc1ccc(-n2nc(C(C)(C)C)cc2NC(=O)Nc2ccc(Oc3ccnc(Nc4ccc5[nH]nc(OCCN6CCOCC6)c5c4)n3)c3ccccc23)cc1 shows IC50 below 4 nM
y

Is IC50 strictly under 4 nM for the entry CC(C)(C)c1cc(NC(=O)Nc2ccc(Oc3ccnc(Nc4ccc5[nH]ncc5c4)c3)c3ccccc23)n(-c2cccc(OCCN3CCOCC3)c2)n1 ?
n

Field: below-cutoff. Rule: recorded IC50 strictly less than 4 nM. Subject: COc1ccc(-n2nc(C3CCOC3)cc2NC(=O)Nc2ccc(Oc3ccnc(Nc4ccc5[nH]ncc5c4)n3)c3ccccc23)cc1 (stereo not drawn)
n

For this molecule, is IC50 lower than 4 nM? CC(C)(C)c1cc(NC(=O)Nc2ccc(Oc3ccnc(Nc4ccc5[nH]ccc5c4)n3)c3ccccc23)n(-c2ccc(O)cc2)n1
y

Regarding COc1ccc(-n2nc(C(C)(C)C)cc2NC(=O)Nc2ccc(Oc3ccnc(Nc4ccc5c(cnn5CCN5CCOCC5)c4)n3)c3ccccc23)cc1 , kindly confirm whether its IC50 is beneath 4 nM.
y

Could you please tell me whether IC50 recorded for Cc1ccc(-n2nc(C(C)(C)C)cc2NC(=O)Nc2ccc(Oc3ccnc(Nc4ccc5c(cnn5C)c4)n3)c3ccccc23)cc1 is less than 4 nM?
y

In the record for COc1ccc(-n2nc(C(C)(C)C)cc2NC(=O)Nc2ccc(Oc3ccnc(Nc4ccc5c(cnn5C)c4)n3)c3ccccc23)cc1 , is IC50 less than 4 nM?
y

Decide: IC50 of COc1ccc(-n2nc(C(C)(C)C)cc2NC(=O)Nc2ccc(Oc3ccnc(Nc4ccc5[nH]ccc5c4)n3)c3ccccc23)cn1 strictly below 4 nM?
y

Given CC(C)(C)c1cc(NC(=O)Nc2ccc(Oc3ccnc(Nc4ccc5c(c4)C(=O)NC5)n3)c3ccccc23)n(-c2ccc(OCCN3CCOCC3)cc2)n1 , is recorded IC50 strictly lower than 4 nM?
y

IC50 strictly < 4 nM for this molecule? CC(C)(C)c1cc(NC(=O)Nc2ccc(Oc3ccnc(Nc4ccc5c(cnn5CCN5CCOCC5)c4)n3)c3ccccc23)n(-c2ccc(OCCN3CCOCC3)nc2)n1
n

Is it true that IC50 reported for CC(C)(C)c1cc(NC(=O)Nc2ccc(Oc3ccnc(Nc4ccc5c(c4)NC(=O)C5)n3)c3ccccc23)n(-c2ccc(OCCN3CCOCC3)nc2)n1 is less than 4 nM?
n
